Target: SMK6 crystallization construct (53-nucleotide SMK box riboswitch)
Experiment: Apparent Kd determination by size-exclusion filtration (modified SAM binding assay)
Conditions: 53-nt crystallization construct SMK6; [3H]-SAM
Experimental: The apparent equilibrium dissociation constants (Kd values) for the wild-type 15-118 metK leader sequence and the 53-nucleotide crystallization construct were determined using a modified SAM binding assay (J. Tomsic, et al., J. Bacteriol., 190, 823-833 (2007)). […] The Kd value for the full-length SMK transcript was further confirmed by fluorescence-quenching assays, as described below and shown in FIG. 11.
measuredEndpoint: Kd (nM)
The answer is to be given in nM; state only the numeric part.

Query string: Consider the molecule shown here: C[S+](CC[C@H](N)C(=O)[O-])C[C@H]1O[C@@H](n2cnc3c(N)ncnc32)[C@H](O)[C@@H]1O (stereo partly shown) What is its recorded Kd?
Result string: 570
